# Test system: RXRa DBDmut IVT, anti-RXR (DBD mutation: RXRa K156A/R161A, NR concentration 90 nM)
# Method description: PBM binding z-score (relative to random genomic background probes); higher = stronger binding; sequences stand for … in GC…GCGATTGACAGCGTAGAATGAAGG
Parameter measured: PBM binding z-score

> print(dat)
                            seq.string  number
 1  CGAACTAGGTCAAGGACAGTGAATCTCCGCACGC    1.42
 2  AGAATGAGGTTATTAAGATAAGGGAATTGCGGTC    1.84
 3  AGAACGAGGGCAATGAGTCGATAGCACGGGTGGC    1.75
 4  CCTAGTTGGACAAGGTCACACACGCTATAGGTAC    1.75
 5  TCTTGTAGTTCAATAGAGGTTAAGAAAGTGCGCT    2.27
 6  GAGACAGGGTCAAGGCCAGAGTACGCGTATTGAT    1.95
 7  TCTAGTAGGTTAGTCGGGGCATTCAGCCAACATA    1.33
 8  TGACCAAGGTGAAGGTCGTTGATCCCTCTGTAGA  -0.322
 9  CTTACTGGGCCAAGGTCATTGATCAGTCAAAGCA    2.11
10  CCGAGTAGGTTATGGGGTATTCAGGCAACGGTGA  0.0146
11  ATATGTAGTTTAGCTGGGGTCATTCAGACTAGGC    2.23
12  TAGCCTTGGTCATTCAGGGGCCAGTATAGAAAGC   -0.76
